B1: Formin-binding protein 4, residues 200 to 261; numbered along this chain, Q8N3X1 (parent)
chain: SGWQYDTQCSLAGVGIEMGDWQEVWDENTGCYYYWNTQTNEVTWELPQYLATQVQGLQHYQP

# Variants of: B1
# ASSAY_SUMMARY: abundance fitness (aPCA) (normalised: wild type 0, dead -1); higher = more abundant; growth selection in yeast, the domain comes from the species named
# ASSAY_CONDITIONS: Homo sapiens
We use -0.07 as the dividing line for abundance fitness: on or above the line is Fulfilled, below is Not fulfilled.

Query: I'd appreciate it if you could say whether `A51H` has abundance fitness at least equal to -0.07.
Response: Not fulfilled

Query: I'd appreciate it if you could say whether `T29K` has abundance fitness at least equal to -0.07.
Response: Fulfilled

Query: I'd appreciate it if you could say whether `E23H` has abundance fitness at least equal to -0.07.
Response: Not fulfilled

Query: I'd appreciate it if you could say whether `W44G` has abundance fitness at least equal to -0.07.
Response: Not fulfilled

Query: I'd appreciate it if you could say whether `T29F` has abundance fitness at least equal to -0.07.
Response: Not fulfilled

Query: I'd appreciate it if you could say whether `L57W` has abundance fitness at least equal to -0.07.
Response: Not fulfilled

Query: I'd appreciate it if you could say whether `I16M` has abundance fitness at least equal to -0.07.
Response: Fulfilled
